Each record here notes measured inhibition at 100 µM.
target: ovine COX-1 (Ovis aries, UniProt P05979); construct: purchased Cayman Chemical 700100; assay: Cyclooxygenase inhibition assay (COX Fluorescent Inhibitor Screening Assay Kit), COX-1; type: biochemical; settings: read-out: COX-1 (% inhibition)
Sequence (P05979 25-600): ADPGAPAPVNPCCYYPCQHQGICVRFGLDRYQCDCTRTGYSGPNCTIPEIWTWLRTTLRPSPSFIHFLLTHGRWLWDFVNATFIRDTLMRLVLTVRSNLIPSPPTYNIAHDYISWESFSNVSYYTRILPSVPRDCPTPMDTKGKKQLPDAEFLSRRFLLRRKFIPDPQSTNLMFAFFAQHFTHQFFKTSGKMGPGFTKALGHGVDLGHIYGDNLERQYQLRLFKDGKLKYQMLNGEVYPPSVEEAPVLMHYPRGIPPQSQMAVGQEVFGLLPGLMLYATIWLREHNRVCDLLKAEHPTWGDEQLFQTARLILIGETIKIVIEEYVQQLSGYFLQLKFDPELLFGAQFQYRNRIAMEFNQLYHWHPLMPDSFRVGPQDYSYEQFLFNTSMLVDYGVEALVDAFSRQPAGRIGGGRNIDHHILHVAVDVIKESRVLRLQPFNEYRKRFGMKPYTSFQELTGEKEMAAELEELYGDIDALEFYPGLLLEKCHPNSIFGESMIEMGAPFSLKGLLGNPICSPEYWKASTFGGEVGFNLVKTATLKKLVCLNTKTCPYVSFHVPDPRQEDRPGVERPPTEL
Dear colleague, please return just the value in %, with no unit written.

compound	measurement
NS(=O)(=O)c1ccc(-n2nc(CCCNC(=O)Nc3ccc(Cl)cc3)cc2-c2ccccc2)cc1 [Compound 21h]	15.2
CS(=O)(=O)c1ccc(-n2nc(CCCNC(=O)Nc3cccc(C(F)(F)F)c3)cc2-c2ccccc2)cc1 [Compound 21a]	6.4
CS(=O)(=O)c1ccc(-n2nc(CNC(=O)Nc3cccc(C(F)(F)F)c3)cc2-c2ccccc2)cc1 [Compound 11f]	7.8

Q) Fill blank: measured inhibition at 100 µM of the compound NS(=O)(=O)c1ccc(-n2nc(CCCNC(=O)NC34CC5CC(CC(C5)C3)C4)cc2-c2ccccc2)cc1 [Compound 21f] is ____.
A) 6.7
